- Tested on: SNB-75 CNS
- experiment_description: NCI tumour cell line growth inhibition, 48 h; in the data active = GI50 below about 0.43 µM; inactive = the rest
A correct response names exactly one class from active, inactive

Worked set:
molecule: NS(=O)(=O)CC1CC[CH-]CC1.[Cl-].[Cl-].[Cl-].[Cl-].[Cl-].[Sb+5].c1ccncc1
assigned_class: inactive

molecule: O=[N+]([O-])c1cc(C(F)(F)F)ccc1Sc1ccc(C(F)(F)F)cc1[N+](=O)[O-]
assigned_class: inactive

molecule: OCCNc1nc(Nc2ccc(Cl)c(Cl)c2)nc2ccccc12
assigned_class: inactive

molecule: O=C(Nc1cccc(-c2ccc(Cl)c(C(F)(F)F)c2)c1)C1CCN(Cc2cccc3cccnc23)CC1
assigned_class: inactive

Attention now shifts to the item below.
Ask | Hello, I am checking results. What call was entered for `CCCN(CCC)c1ccc(/C=N/NC(=O)c2cccnc2)c(OC)c1` ?
Reply | inactive

----------
- Test system: OVCAR-8 ovarian
- experiment_description: NCI tumour cell line growth inhibition, 48 h
*1 amine or outer side, *2 acyl side, *3 side chain or, on linkers, in order; H or OH if unused. Where a SMILES comes first, the peptide text is derived from it. Bridges are numbered along the chain shown (N, C = ends). [ ]: non-standard residue; d: D form. The star is where a group is joined. X34 = O=C(C(CCCCNO[*:3])N[*:1])[*:2]; Fmoc = O=C(OCC1c2ccccc2-c2ccccc21)*; dTle = CC(C)(C)[C@@H](N)C(=O)O; 4Abz = Nc1ccc(C(=O)O)cc1; NHOH = ON*
property_label: TGI

Reference set (4 entries):
molecule: NC(=O)CNC(=O)C1CCCN1C(=O)C1CCCCNOC(=O)CCC(NC(=O)OCC2c3ccccc3-c3ccccc32)C(=O)NC(Cc2c[nH]c3ccccc23)C(=O)N1 (stereo not given) (Fmoc-EW[X34]PG-NH2; ester 1-3; configuration not given here)
measured_target: OVCAR-8 ovarian
TGI: > 100 µM
--
molecule: O=C1c2ccccc2C(=O)c2c(Nc3cc4c5c(ccc6c7ccc8c9c(cc(Nc%10cccc%11c%10C(=O)c%10ccccc%10C%11=O)c(c3c56)c97)-c3ccccc3C8=O)C(=O)c3ccccc3-4)cccc21
measured_target: OVCAR-8 ovarian
TGI: > 100 µM
--
molecule: O=NNc1ccc(Sc2ccc(NN=O)cn2)nc1
measured_target: OVCAR-8 ovarian
TGI: > 100 µM
--
molecule: C[C@@H](NC(=O)[C@H](NC(=O)[C@@H]1CCCN1C(=O)CNC(=O)c1ccc(N)cc1)C(C)(C)C)C(=O)NO (H-[4Abz]GP[dTle][dA]-{NHOH})
measured_target: OVCAR-8 ovarian
TGI: > 100 µM

Per the records, this molecule ( `CCOC(=O)c1cnc2sc3ccc4ccccc4c3n2c1=O` ) has TGI equal to > 100 µM

----------
- Tested on: NCI-H226 lung
- experiment_description: NCI tumour cell line growth inhibition, 48 h
property_label: TGI (µM)
Answers are plain numbers, in µM.

compound: N#Cc1cc(S(=O)(=O)Nc2nnc(-c3ccccc3)c(-c3ccccc3)n2)c(SCc2ccccc2)cc1Cl
measured_target: NCI-H226 lung
unit_abbrev: µM
TGI: 70.7
//
compound: Oc1ccc(C2c3ccccc3Oc3ccccc32)c2cccnc12
measured_target: NCI-H226 lung
unit_abbrev: µM
TGI: 7.92
//
compound: C=C(CO)[C@@H]1CC[C@]2(COC3CCCCO3)CC[C@]3(C)[C@H](CC[C@@H]4[C@@]5(C)C=C(C=O)C(=O)C(C)(C)[C@@H]5CC[C@]43C)[C@@H]12 (stereo not given in full)
measured_target: NCI-H226 lung
unit_abbrev: µM
TGI: 1.47
//
compound: O=C(/C=C/C12c3ccccc3C(c3ccccc31)C1C(=O)NC(=O)C12)c1ccc(F)cc1 (stereo not given)
measured_target: NCI-H226 lung
unit_abbrev: µM
TGI: 9.51
//
compound: CN(C)c1ccc(/C=C2\N=C(N/N=C/c3ccccc3O)NC2=O)cc1
measured_target: NCI-H226 lung
unit_abbrev: µM
TGI: 41.1

Record CC(CN(C)C)Oc1ccccc1NC1=C(Cl)C(=O)C(Nc2ccccc2OC(C)CN(C)C)=C(Cl)C1=O (stereo not given) / NCI-H226 lung, TGI recorded as 2.91

----------
Would you mind telling me the reported TGI of each entry?
- System: UACC-62 melanoma
- experiment_description: NCI tumour cell line growth inhibition, 48 h

molecule: CC(C)=CCC/C(C)=C\CCC1(C)OC(=O)C2CC21 (stereo not drawn)
measured_target: UACC-62 melanoma
TGI: > 100 µM
//
molecule: NC1=NN(c2ccccc2)C(=O)C1C(=O)C(=O)Nc1nccs1 (stereo not drawn)
measured_target: UACC-62 melanoma
TGI: > 100 µM

Then this molecule:
Kindly note the recorded TGI for `CCN(CC)c1ccc2nc3ccc(N=Nc4c(O)ccc5ccccc45)cc3[n+](-c3ccccc3)c2c1` , which is > 100 µM

----------
- Tested on: MOLT-4 leukemia
- experiment_description: NCI tumour cell line growth inhibition, 48 h
Can you tell me TGI for the items I'm about to list?
One number for each entry, in µM.

Example cases with answers are listed next.
molecule: CSC(=S)OC1CC(n2cnc3c(NC(=O)c4ccccc4)ncnc32)OC1CO[Si](C)(C)C(C)(C)C (stereo unspecified)
TGI / µM: 14.8
//
molecule: O=C(/C=C/C12c3ccccc3C(c3ccccc31)C1C(=O)NC(=O)C12)c1ccc(F)cc1 (stereo unspecified)
TGI / µM: 2.9
//
molecule: CCOC(=O)c1cnc2c(ccc3ncccc32)c1NCCCN(CC)CC
TGI / µM: 72.2

For the 3 molecules below, give their TGI values.
1. Cc1ccc2c(ccc(/C=C\c3cc(C)c4cccnc4c3O)[n+]2C)c1
2. CCc1ccc(C(=Nc2ccc(N(C)C(=O)CN3CCN(C)CC3)cc2)c2c(O)[nH]c3ccc(C(=O)OC)cc23)cc1
3. CCOC(=O)C#Cc1c(C(=O)OCC)nnn1Cc1ccc([N+](=O)[O-])cc1

Reply |
1. 28.4
2. 0.908
3. 13.3

----------
- Test system: OVCAR-4 ovarian
- experiment_description: NCI tumour cell line growth inhibition, 48 h
Exercise: for every item that follows, state its recorded TGI.

Take a look at these entries with their results.
compound: O=NNc1ccc(Sc2ccc(NN=O)cn2)nc1
TGI: > 100 µM
--
compound: COc1cc2c(cc1OC)C(=O)C1(C2)[C@H](c2ccccc2)C2C(=O)c3cc(OC)c(OC)cc3C2[C@H]1c1ccccc1 (stereo partly drawn)
TGI: > 100 µM

Lab note: measured TGI of `CO/N=C\c1cc(O)c(O)c(/C=N/OC)c1` was > 100 µM

----------
- Test system: MDA-MB-435
- experiment_description: NCI tumour cell line growth inhibition, 48 h
Assignment: determine reported TGI for the given compounds.

compound: COC(=O)C(COC(=O)/C=C/c1ccc(OC(C)=O)c(OC(C)=O)c1)NC(=O)/C=C/c1ccc(OC(C)=O)c(OC(C)=O)c1 (stereo not given)
measured_target: MDA-MB-435
TGI: > 100 µM
//
compound: CCC(=O)Nc1ccc(C)c(-c2ccc(C(=O)NCC3CC3)cc2)c1
measured_target: MDA-MB-435
TGI: > 25 µM
//
compound: CN(C(=O)C1=CCC2(CC1)OCCO2)c1ccccc1I
measured_target: MDA-MB-435
TGI: > 100 µM
//
compound: COc1cc2nccc(Oc3ccc(NC(=O)Nc4cc(C)on4)c(Cl)c3)c2cc1OC
measured_target: MDA-MB-435
TGI: > 59.6 µM

// TGI value for COC(=O)C1Cc2ccc3c(c2C1=O)CCCC3 (stereo not given) : > 100 µM

----------
- Test system: UACC-257 melanoma
- experiment_description: NCI tumour cell line growth inhibition, 48 h
property_label: TGI

molecule: CCC(=O)Nc1ccc(C)c(-c2ccc(C(=O)NCC3CC3)cc2)c1
result: > 25 µM

Report TGI for each item below.
1. OCCNc1nc(Nc2ccc(Cl)c(Cl)c2)nc2ccccc12
2. O/N=C1/CC2(N3CCOCC3)C3CC/C(=N\O)C2CC1(Cc1ccccc1)C3 (configuration not stated)

Reply |
23.1 µM
> 100 µM

Parameters: items (list). Returns: TGI for each item.
1. CN(C(=O)C1=CCC2(CC1)OCCO2)c1ccccc1I
2. NC(=O)SCCC(N)C(=O)O (configuration not stated)
3. Cn1c2ccccc2c(=O)c2cccc(C(=O)NCC(=O)O)c21

Reply |
1: > 100 µM; 2: > 100 µM; 3: > 100 µM

According to the records, this molecule COc1ccc(NC(=O)C(C)Oc2ccc(OCC3CCCCC3)cc2)cc1 (configuration not stated) displays TGI of > 100 µM

----------
- System: SF-268 CNS
- experiment_description: NCI tumour cell line growth inhibition, 48 h
property_label: TGI

Observe how each entry below is paired with its result.
compound: CC(C)(C)OC(=O)NCCCC(=O)NC1(c2cc3ccccc3s2)CCCCC1
measured_target: SF-268 CNS
TGI: 39.7 µM
//
compound: N#CC(C#N)N=Nc1ccc(-c2nc3ccccc3o2)cc1
measured_target: SF-268 CNS
TGI: > 100 µM
//
compound: O=C1C=CC(=O)c2c(O)c(Br)c(Br)c(O)c21
measured_target: SF-268 CNS
TGI: 38.3 µM

Here are 3 compounds. What values of TGI were reported for them?
1. O=C(c1ccccc1)c1nc2ccc(Cl)cc2c2c1CCCO2
2. COc1ccc(N=NC(=Nc2ccc(Cl)cc2)c2ccc(N(CCC#N)CCC#N)cc2)cc1
3. O=C1OC(C2(O)OC(=O)c3ccccc32)c2ccccc21 (centres undefined)

Reply |
1. > 100 µM
2. > 100 µM
3. > 100 µM

Parameter requested: TGI. Apply to each item below.
1. NC1=NN(c2ccccc2)C(=O)C1C(=O)C(=O)Nc1nccs1 (centres undefined)
2. C=C1C(=O)O[C@H]2[C@H]1CC/C(COC(=O)C(C)c1ccc(CC(C)C)cc1)=C\CC[C@@]1(C)O[C@@H]21 (some centres undefined)

Reply |
["> 100 µM", "3.5 µM"]
